Hey, just so you know, these numbers are from paper PMC4456239.

- targetOrTestSystem: recombinant His-tagged human cyclin A2 (sequence 174-432) (human) (UniProt P20248)
- protocolSummary: other fluorescence titration
*: point of attachment. X2 = 4‑((4-methylpiperazin-1-yl)methyl)benzoic acid, CN1CCN(Cc2ccc(C(=O)*)cc2)CC1
testReadout: pKd
Bear in mind: pKd is minus log10 of a mol/L concentration; give just that figure.

Q: // query pKd value for entry X2-RLIF-NH2 [SCCP5921: 4-((4-methylpiperazin-1-yl)methyl)benzoic acid ligated to the p21 C-terminus, RLIF]
Result: 5.28
